target: FLT3 (Homo sapiens, UniProt P36888); construct: made in house; assay: Binding constant (Kd) measurement, phage-displayed kinase competition binding assay, FLT3; conditions: read-out: Binding Assay FLT3 Kd
Sequence (P36888 27-993): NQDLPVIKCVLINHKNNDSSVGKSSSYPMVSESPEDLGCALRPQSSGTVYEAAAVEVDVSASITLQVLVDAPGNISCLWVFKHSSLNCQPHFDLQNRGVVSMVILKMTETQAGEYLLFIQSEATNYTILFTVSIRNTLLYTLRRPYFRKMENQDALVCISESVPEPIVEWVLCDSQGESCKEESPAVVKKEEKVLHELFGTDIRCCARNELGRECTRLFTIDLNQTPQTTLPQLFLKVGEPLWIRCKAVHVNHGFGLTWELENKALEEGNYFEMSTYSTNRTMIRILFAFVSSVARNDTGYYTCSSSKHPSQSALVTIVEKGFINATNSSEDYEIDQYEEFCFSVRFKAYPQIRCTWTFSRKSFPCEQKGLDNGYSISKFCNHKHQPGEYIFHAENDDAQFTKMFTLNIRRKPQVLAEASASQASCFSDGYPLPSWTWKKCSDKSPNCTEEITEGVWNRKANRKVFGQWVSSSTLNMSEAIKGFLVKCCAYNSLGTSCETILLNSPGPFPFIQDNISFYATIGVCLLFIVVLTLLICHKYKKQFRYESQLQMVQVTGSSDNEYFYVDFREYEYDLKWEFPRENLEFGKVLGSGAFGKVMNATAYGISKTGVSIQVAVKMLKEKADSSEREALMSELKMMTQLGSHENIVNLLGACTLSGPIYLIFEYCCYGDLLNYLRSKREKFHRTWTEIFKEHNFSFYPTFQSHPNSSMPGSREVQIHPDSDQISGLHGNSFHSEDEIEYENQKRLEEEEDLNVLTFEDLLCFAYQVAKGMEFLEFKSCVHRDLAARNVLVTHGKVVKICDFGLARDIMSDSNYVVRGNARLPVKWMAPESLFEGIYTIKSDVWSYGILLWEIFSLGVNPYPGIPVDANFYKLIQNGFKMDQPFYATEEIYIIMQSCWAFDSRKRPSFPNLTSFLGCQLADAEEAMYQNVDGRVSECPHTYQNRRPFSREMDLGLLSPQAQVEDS
Structures can show the parent of a compound that is named as a salt.
Here, each record is paired with measured Kd data.

A selection of reference data follows.
compound: CC(C)(C)c1cc(NC(=O)Nc2ccc(-c3cn4c(n3)sc3cccc(OCCN5CCOCC5)c34)cc2)no1 [Compound B11, hydrochloride]
Kd: < 10 nM
--
compound: CN1CCN(CCOc2ccc3c(c2)sc2nc(-c4ccc(NC(=O)Nc5cc(C(C)(C)C)on5)cc4)cn23)CC1 [Compound B4, hydrochloride]
Kd: < 10 nM
--
compound: O=C(Nc1ccc(-c2cn3c(n2)sc2cc(OCCN4CCOCC4)ccc23)cc1)Nc1ccc2c(c1)OCCO2
Kd: < 10 nM
--
compound: Cc1nc(-c2ccc(Cl)cc2)sc1C(=O)Nc1ccc(-c2cn3c(n2)sc2cc(OCCN4CCOCC4)ccc23)cc1
Kd: 10 to 100 nM
--
compound: CC(C)(C)c1cc(NC(=O)Nc2ccc(-c3cn4c(n3)sc3cc(CCC(=O)N5CCOCC5)ccc34)cc2)no1
Kd: < 10 nM
--
compound: CC(C)(C)c1cc(NC(=O)Nc2ccc(-c3cn4c(n3)sc3cc(OCCCN5CCOCC5)ccc34)cc2)no1 [Compound B7, hydrochloride]
Kd: < 10 nM
--
compound: CC(C)(C)c1cc(NC(=O)Nc2ccc(-c3cn4c(n3)sc3cc(CCC(=O)NCCN5CCCCC5)ccc34)cc2)no1 [Compound C10, hydrochloride]
Kd: < 10 nM
--
compound: CN(C(=O)Nc1cc(C(C)(C)C)on1)c1ccc(-c2cn3c(n2)sc2cc(CCCN4CCOCC4)ccc23)cc1 [Compound D2]
Kd: 10 to 100 nM

Sure, the documented Kd for CC(C)(C)c1cc(NC(=O)Nc2ccc(-c3cn4c(n3)sc3cc(O)ccc34)cc2)no1 is < 10 nM

Sure, the documented Kd for CCN1CCN(Cc2ccc3c(c2)sc2nc(-c4ccc(NC(=O)Nc5cc(C(C)(C)C)on5)cc4)cn23)CC1 [Compound D9, hydrochloride] is < 10 nM

Sure, the documented Kd for CN1CCN(CCCOc2ccc3c(c2)sc2nc(-c4ccc(NC(=O)Nc5cc(C(C)(C)C)on5)cc4)cn23)CC1 is < 10 nM

Sure, the documented Kd for CC(C)(C)c1cc(NC(=O)Nc2ccc(-c3cn4c(n3)sc3ccccc34)cc2)no1 is < 10 nM

----------
target: UniProtKB P07333
Counter-ions that a name gives are not always drawn.
Here, each record is paired with measured Kd data.

A selection of reference data follows.
molecule: CCN(CC)CCNC(=O)CCc1ccc2c(c1)sc1nc(-c3ccc(NC(=O)Nc4cc(C(C)(C)C)on4)cc3)cn12 [Compound C12, hydrochloride]
Kd: 10 to 100 nM

molecule: CN1CCN(C(=O)c2ccc3c(c2)sc2nc(-c4ccc(NC(=O)Nc5cc(C(C)(C)C)on5)cc4)cn23)CC1 [Compound C25, hydrochloride]
Kd: 10 to 100 nM

molecule: CC(C)(C)c1cc(NC(=O)Nc2ccc(-c3cn4c(n3)sc3cc(CCCN5CCCCC5)ccc34)cc2)no1 [Compound D4, hydrochloride]
Kd: 10 to 100 nM

molecule: CC(C)(C)c1cc(NC(=O)Nc2ccc(-c3cn4c(n3)sc3ccc(OCCN5CCOCC5)cc34)cc2)no1 [Compound B12, hydrochloride]
Kd: 100 to 1000 nM

Here CC(C)(C)c1cc(NC(=O)Nc2ccc(-c3cn4c(n3)sc3cc(CCC(=O)NCCN5CCOCC5)ccc34)cc2)no1 [Compound C9, hydrochloride] was tested on UniProtKB P07333, and its Kd came to < 10 nM

Here CC(C)(C)c1cc(NC(=O)Nc2ccc(-c3cn4c(n3)sc3cc(CCC(=O)N5CCOCC5)ccc34)cc2)no1 was tested on UniProtKB P07333, and its Kd came to 10 to 100 nM

----------
molecular target: KIT (Homo sapiens); construct: made in house; assay: Binding constant (Kd) measurement, phage-displayed kinase competition binding assay, KIT
Sequence (P10721 26-976): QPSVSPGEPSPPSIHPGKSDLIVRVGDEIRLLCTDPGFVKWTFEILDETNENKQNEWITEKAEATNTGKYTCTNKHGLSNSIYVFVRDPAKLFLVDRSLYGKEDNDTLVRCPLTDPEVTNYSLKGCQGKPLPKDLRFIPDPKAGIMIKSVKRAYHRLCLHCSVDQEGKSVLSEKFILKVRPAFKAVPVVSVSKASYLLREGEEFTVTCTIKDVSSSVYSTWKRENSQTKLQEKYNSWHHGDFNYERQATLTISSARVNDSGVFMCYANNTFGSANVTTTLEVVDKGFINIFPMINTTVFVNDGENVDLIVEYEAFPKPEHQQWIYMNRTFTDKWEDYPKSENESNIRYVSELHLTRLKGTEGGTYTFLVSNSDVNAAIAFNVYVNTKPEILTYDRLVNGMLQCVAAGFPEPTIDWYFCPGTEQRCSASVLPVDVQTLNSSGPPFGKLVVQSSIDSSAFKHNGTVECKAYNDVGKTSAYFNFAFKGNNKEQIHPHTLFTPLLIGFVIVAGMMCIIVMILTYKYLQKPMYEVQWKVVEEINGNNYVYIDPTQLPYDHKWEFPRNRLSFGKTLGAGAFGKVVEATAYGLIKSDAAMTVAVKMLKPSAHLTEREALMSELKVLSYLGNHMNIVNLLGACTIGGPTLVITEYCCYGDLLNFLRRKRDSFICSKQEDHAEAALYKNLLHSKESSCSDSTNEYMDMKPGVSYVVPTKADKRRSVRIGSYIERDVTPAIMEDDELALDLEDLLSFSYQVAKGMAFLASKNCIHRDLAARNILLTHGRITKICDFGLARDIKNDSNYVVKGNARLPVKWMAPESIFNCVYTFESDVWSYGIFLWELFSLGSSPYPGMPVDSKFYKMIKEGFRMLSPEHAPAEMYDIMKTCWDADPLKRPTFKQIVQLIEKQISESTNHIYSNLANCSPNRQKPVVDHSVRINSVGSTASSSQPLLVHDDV
Where a name gives a salt, the structure may show the parent alone.
assay-endpoint: Kd

A selection of reference data follows.
compound: CC(C)(C)c1cc(NC(=O)Nc2ccc(-c3cn4c(n3)sc3cc(CN5CCCCC5)ccc34)cc2)no1 [Compound D10, hydrochloride]
result: < 10 nM

compound: CC(C)(C)c1cc(NC(=O)Nc2ccc(-c3cn4c(n3)sc3cc(C(=O)O)ccc34)cc2)no1
result: < 10 nM

compound: CC(C)(C)c1cc(NC(=O)Nc2ccc(-c3cn4c(n3)sc3cc(CC(=O)NCCN5CCCCC5)ccc34)cc2)no1 [Compound C14, hydrochloride]
result: < 10 nM

# evaluate next
Sure, the documented Kd for CC(C)[C@@H](N)C(=O)Oc1ccc2c(c1)sc1nc(-c3ccc(NC(=O)Nc4cc(C(C)(C)C)on4)cc3)cn12 is 10 to 100 nM

----------
Here, each record is paired with measured IC50 data.
test system: MV4-11 cells; test: Cellular proliferation assay (MTS), MV4-11; assay type: cell-based; conditions: Homo sapiens, MV4-11, 72 h, read-out: Cellular Assay MV-proliferation IC50 (nM)
Structures can show the parent of a compound that is named as a salt.

A selection of reference data follows.
molecule: CCN1CCN(Cc2ccc3c(c2)sc2nc(-c4ccc(NC(=O)Nc5cc(C(C)(C)C)on5)cc4)cn23)CC1 [Compound D9, hydrochloride]
IC50: < 10 nM
--
molecule: CCN1CCN(C(=O)Cc2ccc3c(c2)sc2nc(-c4ccc(NC(=O)Nc5cc(C(C)(C)C)on5)cc4)cn23)CC1 [Compound C17, hydrochloride]
IC50: < 10 nM
--
molecule: CCN1CCN(C(=O)c2ccc3c(c2)sc2nc(-c4ccc(NC(=O)Nc5cc(C(C)(C)C)on5)cc4)cn23)CC1 [Compound C23, hydrochloride]
IC50: < 10 nM

# evaluate next
Sure, the documented IC50 for CC(C)(C)c1cc(NC(=O)Nc2ccc(-c3cn4c(n3)sc3cc(OCCN5CCOCC5)ccc34)cc2)no1 is < 10 nM

----------
Entries below carry reported Kd on KIT (Homo sapiens).
Counter-ions that a name gives are not always drawn.

A selection of reference data follows.
molecule: CC(C)(C)c1cc(NC(=O)Nc2ccc(-c3cn4c(n3)sc3cc(CCC(=O)NCCN5CCCCC5)ccc34)cc2)no1 [Compound C10, hydrochloride]
Kd: < 10 nM
//
molecule: CCN(CC)CCNC(=O)CCc1ccc2c(c1)sc1nc(-c3ccc(NC(=O)Nc4cc(C(C)(C)C)on4)cc3)cn12 [Compound C12, hydrochloride]
Kd: < 10 nM
//
molecule: Cc1nc(C(F)(F)F)c(C(=O)Nc2ccc(-c3cn4c(n3)sc3cc(OCCN5CCOCC5)ccc34)cc2)s1
Kd: > 1000 nM
//
molecule: CCN1CCN(Cc2ccc3c(c2)sc2nc(-c4ccc(NC(=O)Nc5cc(C(C)(C)C)on5)cc4)cn23)CC1 [Compound D9, hydrochloride]
Kd: < 10 nM

# evaluate next
Here CC(C)(C)c1cc(NC(=O)Nc2ccc(-c3cn4c(n3)sc3ccc(OCCN5CCOCC5)cc34)cc2)no1 [Compound B12, hydrochloride] was tested on KIT (Homo sapiens), and its Kd came to 10 to 100 nM

----------
target: FLT3 (Homo sapiens, UniProt P36888); construct: made in house; test: Binding constant (Kd) measurement, phage-displayed kinase competition binding assay, FLT3; settings: read-out: Binding Assay FLT3 Kd
Counter-ions that a name gives are not always drawn.
Here, each record is paired with measured Kd data.

compound: O=C(CCc1ccc2c(c1)sc1nc(-c3ccc(NC(=O)N4CCOCC4)cc3)cn12)N1CCOCC1 [Compound E1]
target-system: FLT3 (Homo sapiens, UniProt P36888)
Kd: 100 to 1000 nM

compound: CN1CCN(c2ccc3c(c2)sc2nc(-c4ccc(NC(=O)Nc5cc(C(C)(C)C)on5)cc4)cn23)CC1
target-system: FLT3 (Homo sapiens, UniProt P36888)
Kd: < 10 nM

compound: Cc1nc(C(F)(F)F)c(C(=O)Nc2ccc(-c3cn4c(n3)sc3cc(OCCN5CCOCC5)ccc34)cc2)s1
target-system: FLT3 (Homo sapiens, UniProt P36888)
Kd: > 1000 nM

# evaluate next
Here CC(C)(C)c1cc(NC(=O)Nc2ccc(-c3cn4c(n3)sc3cc(CCC(=O)NCCN5CCOCC5)ccc34)cc2)no1 [Compound C9, hydrochloride] was tested on FLT3 (Homo sapiens, UniProt P36888), and its Kd came to < 10 nM

----------
Entries below carry reported Kd on CSF1R (Homo sapiens, UniProt P07333).
Sequence (P07333 20-972): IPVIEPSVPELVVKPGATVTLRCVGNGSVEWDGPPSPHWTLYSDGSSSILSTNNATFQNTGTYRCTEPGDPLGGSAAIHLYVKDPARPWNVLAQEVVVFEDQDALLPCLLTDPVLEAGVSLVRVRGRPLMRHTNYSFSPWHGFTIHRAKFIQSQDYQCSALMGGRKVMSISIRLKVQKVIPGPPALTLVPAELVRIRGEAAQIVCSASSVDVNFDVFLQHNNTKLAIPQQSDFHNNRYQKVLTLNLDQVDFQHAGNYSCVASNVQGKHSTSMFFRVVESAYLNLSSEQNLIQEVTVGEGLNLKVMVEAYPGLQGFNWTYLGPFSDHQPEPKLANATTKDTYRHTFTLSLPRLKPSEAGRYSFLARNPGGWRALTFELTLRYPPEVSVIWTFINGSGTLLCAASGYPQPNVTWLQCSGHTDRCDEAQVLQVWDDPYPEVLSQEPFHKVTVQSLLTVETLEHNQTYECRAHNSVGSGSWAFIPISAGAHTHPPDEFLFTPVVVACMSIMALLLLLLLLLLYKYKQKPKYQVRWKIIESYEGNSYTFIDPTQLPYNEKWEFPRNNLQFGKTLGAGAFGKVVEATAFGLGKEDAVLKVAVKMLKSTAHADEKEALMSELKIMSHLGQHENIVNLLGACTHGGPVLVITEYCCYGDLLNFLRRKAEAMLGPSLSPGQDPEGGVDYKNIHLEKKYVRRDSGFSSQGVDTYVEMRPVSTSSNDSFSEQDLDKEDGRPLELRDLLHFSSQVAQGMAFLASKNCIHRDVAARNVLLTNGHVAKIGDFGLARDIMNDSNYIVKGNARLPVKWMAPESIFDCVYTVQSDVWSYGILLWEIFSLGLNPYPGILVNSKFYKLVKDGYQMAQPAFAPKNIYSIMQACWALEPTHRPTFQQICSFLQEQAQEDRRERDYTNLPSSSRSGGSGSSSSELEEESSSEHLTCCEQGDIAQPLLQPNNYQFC
Structures can show the parent of a compound that is named as a salt.

A selection of reference data follows.
compound: CC(C)(C)c1cc(NC(=O)Nc2ccc(-c3cn4c(n3)sc3cccc(OCCN5CCOCC5)c34)cc2)no1 [Compound B11, hydrochloride]
assay-endpoint: Kd
result: 100 to 1000 nM
//
compound: CCN1CCN(C(=O)c2ccc3c(c2)sc2nc(-c4ccc(NC(=O)Nc5cc(C(C)(C)C)on5)cc4)cn23)CC1 [Compound C23, hydrochloride]
assay-endpoint: Kd
result: 10 to 100 nM
//
compound: CC(C)(C)c1cc(NC(=O)Nc2ccc(-c3cn4c(n3)sc3cc(OCCCN5CCSCC5)ccc34)cc2)no1
assay-endpoint: Kd
result: 10 to 100 nM

Here CC(C)(C)c1cc(NC(=O)Nc2ccc(-c3cn4c(n3)sc3cc(CN5CCOCC5)ccc34)cc2)no1 [Compound D8, hydrochloride] was tested on CSF1R (Homo sapiens, UniProt P07333), and its Kd came to 10 to 100 nM

Here CCN(CC)C(=O)CCc1ccc2c(c1)sc1nc(-c3ccc(NC(=O)Nc4cc(C(C)(C)C)on4)cc3)cn12 was tested on CSF1R (Homo sapiens, UniProt P07333), and its Kd came to 10 to 100 nM

Here CC(C)(C)c1cc(NC(=O)Nc2ccc(-c3cn4c(n3)sc3cc(CCCN5CCOCC5)ccc34)cc2)no1 was tested on CSF1R (Homo sapiens, UniProt P07333), and its Kd came to 10 to 100 nM

Here O=C(Cc1noc2ccccc12)Nc1ccc(-c2cn3c(n2)sc2cc(OCCN4CCOCC4)ccc23)cc1 [Compound E2] was tested on CSF1R (Homo sapiens, UniProt P07333), and its Kd came to > 1000 nM

Cited source: patent US8921546B2
